Numbers sourced from patent US20240002388A1.

Measured pIC50 accompanies every entry in the list below.
molecular target: RIPK1 recombination protein (Homo sapiens (Human), UniProt Q13546); experiment: RIPK1 kinase activity assay (ADP-Glo); settings: RIPK1 kinase activity, ADP-Glo, 10 μM ATP
Sequence (Q13546 other isoform, or with tags, fused parts or gaps): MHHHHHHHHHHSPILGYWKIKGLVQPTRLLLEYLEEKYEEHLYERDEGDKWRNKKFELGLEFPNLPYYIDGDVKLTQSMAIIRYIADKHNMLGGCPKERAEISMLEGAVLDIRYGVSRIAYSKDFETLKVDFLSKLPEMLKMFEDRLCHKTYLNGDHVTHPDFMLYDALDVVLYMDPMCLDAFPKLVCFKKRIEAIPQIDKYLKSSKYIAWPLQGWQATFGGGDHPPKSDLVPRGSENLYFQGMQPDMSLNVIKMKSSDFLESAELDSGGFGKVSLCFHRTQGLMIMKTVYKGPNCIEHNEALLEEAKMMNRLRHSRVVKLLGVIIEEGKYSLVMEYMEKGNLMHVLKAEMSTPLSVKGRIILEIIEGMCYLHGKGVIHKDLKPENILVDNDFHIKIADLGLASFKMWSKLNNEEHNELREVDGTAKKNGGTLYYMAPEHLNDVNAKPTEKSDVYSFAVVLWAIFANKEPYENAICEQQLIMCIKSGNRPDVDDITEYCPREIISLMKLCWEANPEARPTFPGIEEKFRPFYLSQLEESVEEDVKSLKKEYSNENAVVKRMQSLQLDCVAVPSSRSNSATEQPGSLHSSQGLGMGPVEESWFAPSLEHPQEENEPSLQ
Would you please state pIC50, meaning minus log10 of the concentration in mol/L, as a bare number?

Here's what some known entries look like.
>>> result_number("Cn1c(N)ncc(-c2ccc(C3(NC(=O)c4nnc(Cc5ccccc5)[nH]4)CC3)cc2)c1=O")
7.41
>>> result_number("Cn1cncc(-c2ccc(C3(NC(=O)c4cc(Cc5ccccc5)on4)CC3)cc2)c1=O")
7.24

Q) Query the reported pIC50 for RIPK1 recombination protein (Homo sapiens (Human), UniProt Q13546); item: Cc1cc(C2(NC(=O)c3ncc4cnn(C(C)C)c4n3)CC2)ccc1-c1cncn(C)c1=O
A) 7.34

Q) For RIPK1 recombination protein (Homo sapiens (Human), UniProt Q13546), provide pIC50 of Cn1cncc(-c2ccc(C3(NC(=O)c4noc(Cc5ccccc5)n4)CC3)cc2)c1=O please.
A) 7.43

Q) Missing value: pIC50, RIPK1 recombination protein (Homo sapiens (Human), UniProt Q13546), entry CC(C)n1ncc2cnc(C(=O)NC3(c4ccc(-c5cncn(CC6CC6)c5=O)cc4)CC3)nc21 . Fill in?
A) 7.38

Q) API: value(readout= pIC50, system= RIPK1 recombination protein (Homo sapiens (Human), UniProt Q13546), query= Cn1cncc(-c2ccc(C3(NC(=O)c4nnc(Cc5ccccc5)[nH]4)CC3)cc2)c1=O )
A) 7.46

Q) Request: pIC50, test system RIPK1 recombination protein (Homo sapiens (Human), UniProt Q13546), entry CC(C)n1ncc2cnc(C(=O)NC3(c4ccc(-c5cncn([C@H](C)C6CC6)c5=O)cc4)CC3)nc21
A) 7.35

Q) Return pIC50 measured with RIPK1 recombination protein (Homo sapiens (Human), UniProt Q13546) given this compound: Cc1ncc(-c2ccc(C3(NC(=O)c4ncc5cnn(C(C)C)c5n4)CC3)cc2)c(=O)n1C
A) 6.36

Q) Recall the recorded pIC50 for CC(C)n1ncc2cnc(C(=O)NC3(c4ccc(-c5cncn(C6(C)CCC6)c5=O)cc4)CC3)nc21 with RIPK1 recombination protein (Homo sapiens (Human), UniProt Q13546) and state it.
A) 7.68

###

biological target: RIPK1 recombination protein (Homo sapiens (Human)); assay: RIPK1 kinase activity assay (ADP-Glo); settings: RIPK1 kinase activity, ADP-Glo, 10 μM ATP
Each item that follows carries a reported pIC50.
Please note pIC50 is a logarithmic value: minus log10 of concentration in mol/L. Answer with that number alone.

>>> result_number("CCn1cncc(-c2ccc(C3(NC(=O)c4ncc5cnn(C(C)C)c5n4)CC3)cc2)c1=O")
7.39

Q) What value of pIC50 has been recorded for this entry: CC(C)n1ncc2cnc(C(=O)NC3(c4ccc(-c5cncn(C6CCOC6)c5=O)cc4)CC3)nc21 (stereo in doubt) [Compound 81]
A) 7.41

Q) Recorded pIC50 of CC(C)n1ncc2cnc(C(=O)NC3(c4ccc(-c5cncn(C6CCC6)c5=O)cc4)CC3)nc21 , please.
A) 7.25

Q) Return reported pIC50; argument: CC(C)n1ncc2cnc(C(=O)NC3(c4ccc(-c5cncn(C6CC6)c5=O)cc4)CC3)nc21
A) 8.05

Q) # get_value(readout='pIC50', item= CC(C)n1ncc2cnc(C(=O)NC3(c4ccc(-c5cncn(C)c5=O)c(C(F)(F)F)c4)CC3)nc21 )
A) 7.05

Q) Reported pIC50 for CC(C)n1ncc2cnc(C(=O)NC3(c4ccc(-c5cncn(C)c5=O)cc4F)CC3)nc21 : what is it?
A) 7.66

Q) # get_value(readout='pIC50', item= CC(C)n1ncc2cnc(C(=O)NC3(c4ccc(-c5cncn([C@@H](C)C(F)(F)F)c5=O)cc4)CC3)nc21 )
A) 7.28

Q) Returns the measured pIC50 for the input compound. Input: CC(C)n1ncc2cnc(C(=O)NC3(c4ccc(-c5cncn(C)c5=O)cc4)CC3)cc21
A) 7.02

###

target: RIPK1 recombination protein (Homo sapiens (Human)); assay: RIPK1 kinase activity assay (ADP-Glo); settings: RIPK1 kinase activity, ADP-Glo, 10 μM ATP
Listing of entries alongside the reported IC50.
Give the value, in units of nM, as a plain number.

Consider the following illustrative entries.
>>> result_number("CC(C)n1ncc2cnc(C(=O)NC3(c4ccc(-c5cncn(C6CC(F)(F)C6)c5=O)cc4)CC3)nc21")
36
>>> result_number("CC(C)n1ncc2cnc(C(=O)NC3(c4ccc(-c5cncn([C@@H]6C[C@@H]6F)c5=O)cc4)CC3)nc21")
21
>>> result_number("CC(C)n1ncc2cnc(C(=O)NC3(c4ccc(-c5cncn(CC6CC6)c5=O)cc4F)CC3)nc21")
62
>>> result_number("CC(C#N)n1cncc(-c2ccc(C3(NC(=O)c4ncc5cnn(C(C)C)c5n4)CC3)cc2)c1=O (stereo in doubt) [Compound 83]")
47
>>> result_number("C[C@H](n1cncc(-c2ccc(C3(NC(=O)c4ncc5cnn(CC6CC6)c5n4)CC3)cc2)c1=O)C(F)(F)F")
43
>>> result_number("C[C@@H](n1cncc(-c2ccc(C3(NC(=O)c4ncc5cnn(CC6CC6)c5n4)CC3)cc2)c1=O)C(F)(F)F")
51
>>> result_number("CC(C)n1ncc2cnc(C(=O)NC3(c4ccc(-c5cncn([C@H]6C[C@@H]6F)c5=O)cc4)CC3)nc21")
49
>>> result_number("CC(C)n1ncc2cnc(C(=O)NC3(c4ccc(-c5cncn(C)c5=O)c(F)c4)CC3)nc21")
49

Q) Give recorded IC50 with RIPK1 recombination protein (Homo sapiens (Human)) for the following molecule: CC(C)n1ncc2cnc(C(=O)NC3(c4ccc(-c5cncn([C@H]6C[C@@H](F)C6)c5=O)cc4)CC3)nc21
A) 41

Q) Short answer please: IC50, RIPK1 recombination protein (Homo sapiens (Human)), entry CC(C)n1ncc2cnc(C(=O)NC3(c4ccc(-c5cncn(CC6(C)CC6)c5=O)cc4)CC3)nc21
A) 14

Q) Look up IC50 with RIPK1 recombination protein (Homo sapiens (Human)) for this molecule: Cn1cncc(-c2ccc(C3(NC(=O)c4nc5n(n4)[C@H](c4ccccc4)CC5)CC3)cc2)c1=O
A) 121
